Cited source: patent US4789587A

Test system: Candida albicans ATCCe 10231
test.name: minimum fungicidal concentration, subculture on YM agar, C. albicans
Format: cell-based
conditions.used: ATCCE10231, minimum dose which kills 99.9% of the organisms, YM agar, overnight at 37°, read-out: MFC C. albicans
Criterion: MFC strictly under 2 µM. Met: Condition met. Not met: Condition not met.

[[record]]
molecule = "O=C(O)CCC(=O)N1CCN(c2ccc(OCC3COC(Cn4ccnc4)(c4ccc(Cl)cc4Cl)O3)cc2)CC1 (stereo not drawn) [No. 4, Cis-4-[A]-1(succinyl)piperazine]"
assigned_class = "Condition not met"


query: Could you please tell me whether MFC recorded for CCCCCCCCC=CCCCCCCCC(=O)NCC(=O)N1CCN(c2ccc(OCC3COC(Cn4ccnc4)(c4ccc(Cl)cc4Cl)O3)cc2)CC1 (stereo not drawn) [No. 8, Cis-4-[A]-1-(N-oleylglycyl)piperazine] is less than 2 µM?
result: Condition not met

query: // query: CC(=O)N1CCN(c2ccc(OCC3COC(Cn4ccnc4)(c4ccc(Cl)cc4Cl)O3)cc2)CC1 (stereo not drawn) [Ketoconazole, reference compound]
result: Condition met

query: // query: CCCCCCCCC=CCCCCCCCC(=O)N1CCN(c2ccc(OCC3COC(Cn4ccnc4)(c4ccc(Cl)cc4Cl)O3)cc2)CC1 (stereo not drawn)
result: Condition not met

query: // query: NCC(=O)N1CCN(c2ccc(OCC3COC(Cn4ccnc4)(c4ccc(Cl)cc4Cl)O3)cc2)CC1 (stereo not drawn) [No. 1, Cis-4-[A]-1-(glycyl)piperazine]
result: Condition not met

query: // query: CC(=O)NCC(=O)N1CCN(c2ccc(OCC3COC(Cn4ccnc4)(c4ccc(Cl)cc4Cl)O3)cc2)CC1 (stereo not drawn) [No. 6, Cis-4-[A]-1-(N-acetylglycyl)piperazine]
result: Condition not met

---

test.name: resorption: plasma concentration in rats after gastric administration
Type: in vivo
conditions.used: rat, po, 1000 umol/kg, 100 μmols/0.5 ml of DMSO per 100 g of body weight, Candida tropicalis inhibition zones vs ketoconazole standard curve, read-out: plasma concentration of the antifungal product
measure.name: concentration at 1 h (µM)
Reply with just the number (in µM).

query: What value of measured concentration at 1 h is listed for CCCCCCCCC=CCCCCCCCC(=O)N1CCN(c2ccc(OCC3COC(Cn4ccnc4)(c4ccc(Cl)cc4Cl)O3)cc2)CC1 (stereo not shown) ?
result: 57.3

---

// values below are reported MBC
Tested on: Staphylococcus aureus ATCC 25923
test.name: minimum bactericidal concentration, subculture on Mueller-Hinton agar, S. aureus
Type: cell-based
conditions.used: ATCC25923, minimum dose which kills 99.9% of the organisms (MBC), overnight at 37°, read-out: MFC S. aureus
Procedure: The activity of the new derivatives according to the invention was tested in vitro by determining the minimum inhibiting concentration (MIC) of the molecules and their fungicidal (minimum fungicidal concentration MFC) or bactericidal (minimum bactericidal concentration MBC) activity. MFC and MBC are defined as the minimum dose which kills 99.9% of the organisms contained in the inoculum. […]

[[record]]
compound = "CC(=O)N1CCN(c2ccc(OCC3COC(Cn4ccnc4)(c4ccc(Cl)cc4Cl)O3)cc2)CC1 (stereo not shown) [Ketoconazole, reference compound]"
meas_value = "50 µM"

[[record]]
compound = "NCC(=O)N1CCN(c2ccc(OCC3COC(Cn4ccnc4)(c4ccc(Cl)cc4Cl)O3)cc2)CC1 (stereo not drawn) [No. 1, Cis-4-[A]-1-(glycyl)piperazine]"
meas_value = "25 µM"

[[record]]
compound = "CCCCCCCCC=CCCCCCCCC(=O)N1CCN(c2ccc(OCC3COC(Cn4ccnc4)(c4ccc(Cl)cc4Cl)O3)cc2)CC1 (stereo not shown) [No. 7]"
meas_value = "> 100 µM"


// below: MBC requested for another compound
query: What value of measured MBC is listed for O=C(O)CCC(=O)N1CCN(c2ccc(OCC3COC(Cn4ccnc4)(c4ccc(Cl)cc4Cl)O3)cc2)CC1 (stereo not drawn) [No. 4, Cis-4-[A]-1(succinyl)piperazine] ?
result: > 100 µM
